Test system: B6C3F1 mice, ip Sarcoma M5076, median survival T/C
assay notes: NCI In Vivo Anticancer Drug Screen. Data for tumor model Sarcoma M5076 (intraperitoneal) in B6C3F1 mice
run parameters: endpoint: median survival time; dose: 10.0 mg/kg/injection; schedule: Q04DX004 (ip); vehicle: Klucel (hydroxypropylcellulose) (HPC)
Inconclusive results and toxic doses are left out. How the source made its calls: active means survival T/C of 150% or more; inactive means T/C below 125% in these data.
Can you answer with just one of these options? True = active, False = inactive

[
  {
    "compound": "CCOC(=O)NC1CCc2cc(OC)c(OC)c(OC)c2-c2ccc(OC)c(=O)cc21 (stereo unspecified)",
    "category label": "True"
  },
  {
    "compound": "CCCCCCCC1C(=O)OC2CC3C(C)=CC(=O)C(O)C3(C)C3C4(O)OCC23C1C(C)C4O (stereo unspecified)",
    "category label": "False"
  },
  {
    "compound": "CC1=CC(C)C(O)C(C)/C=C/C(O)C/C=C(/C)C(=O)CC(O)C(C)\\C=C/C=C/C=C\\C(=O)NC2=C(O)c3cc(C)c(O)c(c3C(=O)C2=O)C1=O (stereo unspecified)",
    "category label": "False"
  },
  {
    "compound": "COc1cc2cc3c(c(O)c2c(O)c1/C=C/C(C)C)C(=O)CC(C)(OC(C)=O)C3 (stereo unspecified)",
    "category label": "False"
  },
  {
    "compound": "CC(=O)NC(CSC1=C2NC(=O)\\C=C/C=C/C=C\\C(C)C(O)CC(=O)/C(C)=C\\CC(O)/C=C/C(C)C(O)C(C)C=C(C)C(=O)c3c(O)c(C)cc(c3C1=O)C2=O)C(=O)O (stereo unspecified)",
    "category label": "False"
  }
]

Let's switch to this compound now.
Test call, this compound: CC(=O)OCc1cc(=O)n(C)c2c3c4c(cc12)c(C)cc(=O)n4CO3
False

###

Tested on: B6C3F1 mice, ip Sarcoma M5076, median survival T/C
assay notes: NCI In Vivo Anticancer Drug Screen. Data for tumor model Sarcoma M5076 (intraperitoneal) in B6C3F1 mice
run parameters: endpoint: median survival time; dose: 50.0 mg/kg/injection; schedule: Q04DX004 (ip); vehicle: saline with Tween-80; higher = longer survival
Inconclusive results and toxic doses are left out.
Entries and their T/C

[
  {
    "compound": "O=C1C(=O)C(CN2CCOCC2)=C(N2CCOCC2)C(N2CCOCC2)=C1CN1CCOCC1",
    "parameter measured": "T/C",
    "observed measurement": "101 % of control"
  },
  {
    "compound": "Nc1ccc2c(c1)CN1C(=O)c3ccccc3C1=N2",
    "parameter measured": "T/C",
    "observed measurement": "110 % of control"
  },
  {
    "compound": "Cc1ccc2c(c1)C1(SC(C)C(=O)N1c1ccc(Cl)cc1)C(=O)N2 (stereo not drawn)",
    "parameter measured": "T/C",
    "observed measurement": "96 % of control"
  }
]

T/C for Cn1c(=O)ccc2c1nc1ccccc1[n+]2[O-] ?
103 % of control

T/C for CC1=Nc2cc(N)nn2C(=O)C1 ?
96 % of control

T/C for Cc1ccc2c(c1)n([O-])c1cc(Cl)ccc1[n+]2=O ?
113 % of control

T/C for COc1ccccc1N=C1SCC(=O)N1Cc1ccco1 ?
110 % of control

T/C for Cn1c(-c2ccc(Br)cc2)cc2[nH]c(=S)nc(N)c2c1=O ?
96 % of control

T/C for O=C(N/N=C/c1ccco1)c1ccc(OCc2nc3ccccc3[nH]2)cc1 ?
95 % of control

T/C for Cc1c(C(=N)C(C#N)C#N)c(=N)oc2c1ccc1ccccc12 ?
96 % of control

###

System: B6C3F1 mice, ip Sarcoma M5076, median survival T/C
assay notes: NCI In Vivo Anticancer Drug Screen. Data for tumor model Sarcoma M5076 (intraperitoneal) in B6C3F1 mice
run parameters: endpoint: median survival time; dose: 100.0 mg/kg/injection; schedule: Q04DX004 (ip); vehicle: saline with Tween-80; higher = longer survival
Toxic doses and inconclusive results are not listed.
parameter measured: T/C

Examples with their reported T/C follow.
[
  {
    "smiles input": "CC1=NN(c2ccccc2)C(=O)C1=Nc1c(C)[nH]n(-c2ccccc2)c1=O",
    "T/C": "92 % of control"
  },
  {
    "smiles input": "CCOC(=O)C1=C(C)O/C(=C/c2cccc(Cl)c2)C1=O",
    "T/C": "99 % of control"
  },
  {
    "smiles input": "CCNC(=O)[B-][N+](C)(C)C",
    "T/C": "104 % of control"
  },
  {
    "smiles input": "O=C1CCC(=O)N1CO",
    "T/C": "101 % of control"
  },
  {
    "smiles input": "Cc1c(C(=N)C(C#N)C#N)c(=N)oc2c1ccc1ccccc12",
    "T/C": "96 % of control"
  }
]

Next:
Provide value of T/C for this record tested with B6C3F1 mice, ip Sarcoma M5076, median survival T/C: CC1=C(/C=C/C(C)=C/C=C/C(C)=C/C(=O)Nc2ccc(O)cc2)C(C)(C)CCC1
105 % of control

###

System: B6C3F1 mice, ip Sarcoma M5076, median survival T/C
assay notes: NCI In Vivo Anticancer Drug Screen. Data for tumor model Sarcoma M5076 (intraperitoneal) in B6C3F1 mice
run parameters: endpoint: median survival time; dose: 400.0 mg/kg/injection; schedule: Q04DX004 (ip); vehicle: suspension in saline
Toxic doses and inconclusive results are not listed. The calls were made as follows: active = survival T/C of 150% or more; inactive = T/C below 125% in these data.
Can you answer with just one of these options? active, inactive

These solved cases illustrate the format of a correct answer.
[
  {
    "molecule": "O=c1[nH]cnc2c1nnn2C1OC(CO)C(O)C1O (stereo unspecified)",
    "category label": "inactive"
  },
  {
    "molecule": "NC(=S)N/N=C/c1ncccc1O",
    "category label": "inactive"
  },
  {
    "molecule": "O=CC(S)CO (stereo unspecified)",
    "category label": "inactive"
  }
]

Test call, this molecule: CC#CCOCC(O)CCl (stereo unspecified)
inactive

Test call, this molecule: O=C(O)C1CC(O)CN1 (stereo unspecified)
inactive

Test call, this molecule: N[C@@H](Cc1c[nH]c2ccccc12)C(=O)Nc1nncs1
inactive

Test call, this molecule: CN1COc2c(n(C)c(=O)[nH]c2=O)C1
inactive

Test call, this molecule: CC(=O)NCCSSCc1ccccc1CS(=O)O
inactive

###

Entries and their T/C
System: B6C3F1 mice, ip Sarcoma M5076, median survival T/C
assay notes: NCI In Vivo Anticancer Drug Screen. Data for tumor model Sarcoma M5076 (intraperitoneal) in B6C3F1 mice
run parameters: endpoint: median survival time; dose: 50.0 mg/kg/injection; schedule: Q04DX004 (ip); vehicle: saline with Tween-80; higher = longer survival
Inconclusive results and toxic doses are left out.

[
  {
    "compound": "CN1CCOc2c1cnn(CCO)c2=O",
    "test target": "B6C3F1 mice, ip Sarcoma M5076, median survival T/C",
    "T/C": "96 % of control"
  },
  {
    "compound": "O=[N+]([O-])c1ccc(C=C2C=CN(CCO)C=C2)cc1",
    "test target": "B6C3F1 mice, ip Sarcoma M5076, median survival T/C",
    "T/C": "115 % of control"
  },
  {
    "compound": "Clc1cc2c(nn1)Nc1ccccc1S2",
    "test target": "B6C3F1 mice, ip Sarcoma M5076, median survival T/C",
    "T/C": "100 % of control"
  },
  {
    "compound": "COC(=O)c1ccc(OCc2nc3ccccc3[nH]2)cc1",
    "test target": "B6C3F1 mice, ip Sarcoma M5076, median survival T/C",
    "T/C": "100 % of control"
  },
  {
    "compound": "CSc1c(N(C)C)c(=O)c1=S",
    "test target": "B6C3F1 mice, ip Sarcoma M5076, median survival T/C",
    "T/C": "98 % of control"
  }
]

Next:
T/C for CCc1n[nH]c(CC)c1CCCCCCOc1ccc(OC)cc1Cl ?
107 % of control

###

Test system: B6C3F1 mice, ip Sarcoma M5076, median survival T/C
assay notes: NCI In Vivo Anticancer Drug Screen. Data for tumor model Sarcoma M5076 (intraperitoneal) in B6C3F1 mice
run parameters: endpoint: median survival time; dose: 100.0 mg/kg/injection; schedule: Q04DX004 (ip); vehicle: saline with Tween-80
Toxic doses and inconclusive results are not listed. How the source made its calls: active means survival T/C of 150% or more; inactive means T/C below 125% in these data.
Can you answer with just one of these options? active, inactive

These solved cases illustrate the format of a correct answer.
[
  {
    "compound": "Cn1c(=O)ccc2c1nc1ccccc1[n+]2[O-]",
    "test target": "B6C3F1 mice, ip Sarcoma M5076, median survival T/C",
    "category label": "inactive"
  },
  {
    "compound": "CC(=O)C[n+]1ccccc1Sc1ccc(Cl)cc1",
    "test target": "B6C3F1 mice, ip Sarcoma M5076, median survival T/C",
    "category label": "inactive"
  },
  {
    "compound": "Cn1c(=O)c2nncnc2n(C)c1=O",
    "test target": "B6C3F1 mice, ip Sarcoma M5076, median survival T/C",
    "category label": "inactive"
  },
  {
    "compound": "CN(C)N=Nc1ccc(C(N)=O)cc1",
    "test target": "B6C3F1 mice, ip Sarcoma M5076, median survival T/C",
    "category label": "active"
  },
  {
    "compound": "Nc1nncs1",
    "test target": "B6C3F1 mice, ip Sarcoma M5076, median survival T/C",
    "category label": "inactive"
  },
  {
    "compound": "CCN(CC)Cc1cc2[nH]c3c4ccc(Cl)cc4ncc3c2cc1OC (tested in a mixture with another compound)",
    "test target": "B6C3F1 mice, ip Sarcoma M5076, median survival T/C",
    "category label": "inactive"
  },
  {
    "compound": "COC1CCCCC1C(N)C(=O)O (centres undefined) (tested in a mixture with another compound)",
    "test target": "B6C3F1 mice, ip Sarcoma M5076, median survival T/C",
    "category label": "inactive"
  },
  {
    "compound": "Cc1cc(Br)c2nsnc2c1[N+](=O)[O-]",
    "test target": "B6C3F1 mice, ip Sarcoma M5076, median survival T/C",
    "category label": "inactive"
  },
  {
    "compound": "COC(=O)c1cc(=O)c2c(ccc3oc(=O)ccc32)[nH]1",
    "test target": "B6C3F1 mice, ip Sarcoma M5076, median survival T/C",
    "category label": "inactive"
  },
  {
    "compound": "O=C(Nc1cc(Cl)ccc1C(=O)O)c1cccc(C[n+]2ccccc2)c1",
    "test target": "B6C3F1 mice, ip Sarcoma M5076, median survival T/C",
    "category label": "inactive"
  }
]

Test call, this compound: c1ccc2c(c1)[nH]c1c2c(N2CCOCC2)nn2cnnc12
inactive

Test call, this compound: O=C1C(=O)C(CN2CCOCC2)=C(N2CCOCC2)C(N2CCOCC2)=C1CN1CCOCC1
inactive

Test call, this compound: COc1ccc(-c2c(N3CCOCC3)oc3cc(N4CCOCC4)c(O)cc23)cc1
inactive
